TEST_SYSTEM: T1, human monomeric BCMA antigen (human, UniProt Q02223 5-54, limits assumed)
T1 construct: also called recombinant human BCMA antigens
T1 chain: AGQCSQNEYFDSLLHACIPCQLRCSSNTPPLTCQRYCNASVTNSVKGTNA
TEST_SUMMARY: SPR (Biacore T200), antibody captured on protein A chip, antigen 6.25-100 nM
ASSAY_METRIC: pKd
Give bare numbers, as −log10 of the molar value.

>>> value_measured("anti-BCMA IgG antibody 5D5 (antibody, V domains shown, also called 5D5 WT; 5D5 antibody) VH: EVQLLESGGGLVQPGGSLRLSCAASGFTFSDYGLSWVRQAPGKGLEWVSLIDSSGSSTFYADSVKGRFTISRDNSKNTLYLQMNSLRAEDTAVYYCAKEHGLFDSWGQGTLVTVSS VL: EIVLTQSPGTLSLSPGERATLSCKASQDIDDDINWYQQKPGQAPRLLIYDASLRATGIPDRFSGSGSGTDFTLTISRLEPEDFAVYYCQQSLRTPITFGQGTKLEIKR")
7.64
>>> value_measured("mutant antibody 5A6 LM6 (antibody, V domains shown, Light chain CDR mutant of 5A6 (IgG1); heavy chain as 5A6) VH: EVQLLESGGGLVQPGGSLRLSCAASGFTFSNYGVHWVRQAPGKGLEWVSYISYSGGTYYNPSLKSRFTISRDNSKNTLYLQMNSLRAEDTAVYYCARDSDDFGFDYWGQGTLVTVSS VL: QSVLTQPPSASGTPGQRVTISCQGESLRSYYVNWYQQLPGTAPKLLIYDHSKRPTGVPDRFSGSKSGTSASLAISGLRSEDEADYYCQSYDASTVVFGGGTKLTVLG")
7.74
>>> value_measured("mutant antibody 5D5 LM4 (antibody, V domains shown, Light chain CDR mutant of 5D5 (IgG1); heavy chain as 5D5) VH: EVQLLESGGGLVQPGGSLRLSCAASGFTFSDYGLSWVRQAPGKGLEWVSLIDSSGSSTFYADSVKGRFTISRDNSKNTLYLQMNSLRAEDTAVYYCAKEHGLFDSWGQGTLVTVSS VL: EIVLTQSPGTLSLSPGERATLSCKASQDIDDAINWYQQKPGQAPRLLIYDASLRATGIPDRFSGSGSGTDFTLTISRLEPEDFAVYYCQQSLRTPITFGQGTKLEIKR")
7.85

Moving on to another binder below.
Query (binder): anti-BCMA IgG antibody 5A6 (antibody, V domains shown, also called 5A6 WT; 5A6 antibody) VH: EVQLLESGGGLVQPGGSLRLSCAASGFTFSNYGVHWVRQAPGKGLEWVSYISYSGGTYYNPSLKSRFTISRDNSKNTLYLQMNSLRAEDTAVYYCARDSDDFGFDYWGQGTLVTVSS VL: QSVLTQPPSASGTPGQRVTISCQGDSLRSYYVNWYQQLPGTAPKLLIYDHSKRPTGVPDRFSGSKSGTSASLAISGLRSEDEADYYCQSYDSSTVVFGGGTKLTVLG ; field requested: pKd 7.20
